Tested on: Mus musculus
Experiment: Analgesic activity in mouse at 20 mg/kg, sc by hot-plate method
Assay type: functional, organism-based
Set-up: dose 20 mg/kg
Active and inactive are the calls of the source. The rule behind the calls is not given here.
observable: Analgesic activity (active/inactive)

* Cc1ccc(C(=O)OC2CCN(C)CC2)cc1C | Active
* COc1ccc(C(=O)O[C@H]2CCN(C)C[C@H]2C)cc1OC (relative stereo) | Active
* CN1CCC(OC(=O)c2ccccc2Oc2ccccc2)CC1 | Active
* CCOc1ccccc1C(=O)OC1CCN(C)CC1 | Active

###

Test system: Mus musculus
Assay: Analgesic activity in sc dosed mouse by Nilsen method
Format: functional
Listed compounds paired with reported ED50
observable: ED50 (mg/kg)

* Cc1cc(C)c(C(=O)OC2CCN(C)CC2)c(C)c1 | 46
* CN1CC[C@]23c4c5ccc(O)c4O[C@H]2[C@@H](O)C=C[C@H]3[C@H]1C5 | 0.8
* Cc1[nH]c(C)c(C(=O)OC2CCN(C)CC2)c1C | 7.1
* COc1ccc(C(=O)OC2CCN(C)CC2)cc1OC | 13.1
* COc1ccc2c3c1O[C@H]1[C@@H](O)C=C[C@H]4[C@@H](C2)N(C)CC[C@@]341 | 4.5
* COc1cccc(C(=O)OC2CCN(C)CC2)c1OC | 19.6
* COc1ccc(CCC(=O)OC2CCN(C)CC2)cc1OC | 32

Reference source: ChEMBL document CHEMBL3244128
